System: S. aureus (ATCC 6538)
Assay type: cell-based
Settings: ATCC 6538, 24 h
Method: MIC values were obtained using broth microdilution against different bacteria following the protocols by Clinical and Laboratory Standards Institute. Specifically, each bacterium (100 μL of 0.5–1 × 10^6 CFU per ml) in Mueller Hinton media broth (Oxoid) was incubated in 96-well microtiter plates at 37 °C on a 3D orbital shaker. […] Following peptide addition, absorbance (600 nm) was measured in a SpectraMax i3x multi-mode microplate reader (Molecular Devices). […]
Peptide text beside a SMILES is read from it.
assay_readout: Minimum inhibitory concentration (µM)
All answers are understood in µM, so give the number only.

Below, each entry is followed by its recorded Minimum inhibitory concentration result.
molecule	result
CC(C)C[C@H](NC(=O)[C@H](CC(C)C)NC(=O)[C@H](CCCNC(=N)N)NC(=O)[C@H](CC(C)C)NC(=O)[C@H](CCCCN)NC(=O)[C@H](CC(C)C)NC(=O)[C@H](CCCNC(=N)N)NC(=O)[C@H](CC(C)C)NC(=O)[C@H](CC(C)C)NC(=O)[C@@H](N)CCCNC(=N)N)C(=O)N[C@@H](CCCNC(=N)N)C(N)=O [bienK11] (H-RLLRLKLRLLR-NH2)	12
CC(C)C[C@H](NC(=O)[C@H](C)NC(=O)[C@H](CC(C)C)NC(=O)[C@H](CCCNC(=N)N)NC(=O)[C@H](CC(C)C)NC(=O)[C@H](CC(C)C)NC(=O)[C@@H](N)CCCNC(=N)N)C(=O)N[C@@H](CCCNC(=N)N)C(=O)N[C@@H](CC(C)C)C(=O)N[C@@H](CC(C)C)C(=O)N[C@@H](CCCNC(=N)N)C(N)=O [bienA11] (H-RLLRLALRLLR-NH2; N-terminus assumed)	3
CC(C)C[C@H](NC(=O)[C@H](CCCNC(=N)N)NC(=O)[C@H](CC(C)C)NC(=O)[C@H](C)NC(=O)[C@H](CC(C)C)NC(=O)[C@H](CCCNC(=N)N)NC(=O)[C@H](CC(C)C)NC(=O)[C@H](CC(C)C)NC(=O)[C@@H](N)CCCNC(=N)N)C(N)=O [bienA9] (H-RLLRLALRL-NH2; N-terminus assumed)	25

Here is the next item to consider.
The reported value for CC(C)C[C@H](NC(=O)[C@H](CC(C)C)NC(=O)[C@H](CCCNC(=N)N)NC(=O)[C@H](CC(C)C)NC(=O)[C@H](CCCCN)NC(=O)[C@H](CC(C)C)NC(=O)[C@H](CCCNC(=N)N)NC(=O)[C@H](CC(C)C)NC(=O)[C@H](CC(C)C)NC(=O)[C@@H](N)CCCNC(=N)N)C(N)=O [bienK10] (H-RLLRLKLRLL-NH2; N-terminus assumed) in terms of Minimum inhibitory concentration is 25
